Value source: ChEMBL document CHEMBL3616440

- Test system: Brain
- test name: Drug concentration in Sprague-Dawley rat brain assessed as 6-(4-chlorophenyl)-3-(4-(2-cyclopropyl-2-hydroxyethoxy)-3-methoxyphenyl)pyrrolo[1,2-f][1,2,4]triazin-4(3H)-one level at 10 mg/kg, po qd at 8 hrs
- Assay type: ADME, organism-based
- applied conditions: in vivo, read-out: Drug uptake
parameter measured: concentration (µM)
Dear colleague, please return just the value in µM, with no unit written.

Notebook: pull reported concentration for Brain, entry COc1cc(-n2cnn3cc(-c4ccc(Cl)cc4)cc3c2=O)ccc1OCC(OC(=O)[C@@H](N)C(C)C)C1CC1 (stereo partly specified)
3.74

====

- subject of test: Melanin-concentrating hormone receptor 1 (Rattus norvegicus)
- Sequence (P97639 whole entry): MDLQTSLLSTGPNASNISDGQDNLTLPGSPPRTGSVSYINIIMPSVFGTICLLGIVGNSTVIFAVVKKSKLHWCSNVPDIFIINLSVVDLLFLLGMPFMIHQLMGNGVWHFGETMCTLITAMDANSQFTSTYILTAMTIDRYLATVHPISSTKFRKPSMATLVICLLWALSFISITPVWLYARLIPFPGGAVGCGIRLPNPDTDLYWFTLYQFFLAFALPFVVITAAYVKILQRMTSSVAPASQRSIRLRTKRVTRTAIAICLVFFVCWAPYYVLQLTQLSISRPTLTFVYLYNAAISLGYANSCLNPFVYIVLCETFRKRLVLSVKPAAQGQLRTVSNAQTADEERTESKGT
Here, each record is paired with measured pKi data.
// pKi here means minus log10 of the molar concentration (mol/L)

Item COc1cc(-n2cnn3cc(-c4ccc(Cl)cn4)cc3c2=O)ccc1OCC1(O)CC(F)(F)C1 has what recorded pKi?
8.19
